Experiment: AUC in Sprague-Dawley CD rat at 1 mg/kg, po
Type: ADME, organism-based
Design: dose 1 mg/kg, route oral
Conditions: plasma
Result Type: AUC (µg·h/mL)

COc1cc(Nc2c(C(N)=O)cnc3c(OC)cc(S(C)(=O)=O)cc23)ccc1F :: 0.081

1. COc1cc(Nc2c(C(N)=O)cnc3ccc(S(C)(=O)=O)cc23)ccc1F
2. COc1cc(Nc2c(C(N)=O)cnc3c(C)cc(S(C)(=O)=O)cc23)ccc1F
3. COc1cc(Nc2c(C(N)=O)cnc3c(Cl)cc(S(C)(=O)=O)cc23)ccc1F
Please give the order of these compounds when sorted by AUC, largest value leading. Provide the ranking by listing each label in its place in the requested order.
2, 1, 3
(2: 0.77 µg·h/mL, 1: 0.53 µg·h/mL, 3: 0.016 µg·h/mL)

---

Assay: Half life in Sprague-Dawley CD rat at 1 mg/kg, iv and 1 mg/kg, po
Assay type: ADME, organism-based
Settings: in vivo
Result Type: half-life (h)

COc1cc(Nc2c(C(N)=O)cnc3ccc(S(C)(=O)=O)cc23)ccc1F :: 1.9
COc1cccc(Nc2c(C(N)=O)cnc3ccc(S(C)(=O)=O)cc23)c1 :: 1.1
Cc1cc(S(C)(=O)=O)cc2c(Nc3cccc(C#N)c3)c(C(N)=O)cnc12 :: 2.3
CS(=O)(=O)c1ccc2ncc(C(N)=O)c(Nc3cccc4c3CCO4)c2c1 :: 1.7
CS(=O)(=O)c1ccc2ncc(C(N)=O)c(Nc3cccc(Cl)c3F)c2c1 :: 2

A. COc1cc(Nc2c(C(N)=O)cnc3c(C)cc(S(C)(=O)=O)cc23)ccc1F
B. CS(=O)(=O)c1ccc2ncc(C(N)=O)c(Nc3cccc(C#N)c3)c2c1
API: POST /compare with A and B ; response names the item with higher half-life. Give the chosen item's label as your response.
A
(A: 1.6 h, B: 0.9 h)

---

Target: 3',5'-cyclic-AMP phosphodiesterase 4B (Homo sapiens, UniProt Q07343)
Sequence (Q07343 whole entry): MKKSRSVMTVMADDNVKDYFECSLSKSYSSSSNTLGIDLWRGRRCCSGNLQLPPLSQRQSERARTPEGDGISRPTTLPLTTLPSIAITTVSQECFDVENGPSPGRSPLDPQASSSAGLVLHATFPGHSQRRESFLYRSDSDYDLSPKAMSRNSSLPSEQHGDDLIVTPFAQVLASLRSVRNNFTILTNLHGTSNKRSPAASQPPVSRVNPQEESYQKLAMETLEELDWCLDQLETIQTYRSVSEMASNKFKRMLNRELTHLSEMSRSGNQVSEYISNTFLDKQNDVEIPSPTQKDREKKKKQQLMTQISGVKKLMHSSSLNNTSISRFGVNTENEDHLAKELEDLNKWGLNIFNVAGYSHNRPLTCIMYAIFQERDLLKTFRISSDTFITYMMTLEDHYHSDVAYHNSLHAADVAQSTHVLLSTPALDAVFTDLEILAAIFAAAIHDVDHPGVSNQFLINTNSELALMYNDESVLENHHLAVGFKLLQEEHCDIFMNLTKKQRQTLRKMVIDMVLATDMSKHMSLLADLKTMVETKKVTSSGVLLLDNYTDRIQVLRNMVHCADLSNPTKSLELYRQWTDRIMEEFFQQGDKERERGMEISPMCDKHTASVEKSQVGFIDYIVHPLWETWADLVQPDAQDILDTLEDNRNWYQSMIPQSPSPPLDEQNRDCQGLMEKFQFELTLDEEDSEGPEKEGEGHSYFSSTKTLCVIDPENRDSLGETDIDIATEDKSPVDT
Experiment: Inhibition of human recombinant PDE4B by scintillation proximity assay
Result Type: IC50 (nM)

1. CS(=O)(=O)c1ccc2ncc(C(N)=O)c(Nc3cccc(O)c3)c2c1
2. COc1cccc(Nc2c(CN)cnc3ccc(S(=O)(=O)c4ccccc4)cc23)c1
3. CS(=O)(=O)c1ccc2ncc(C(N)=O)c(Nc3cccc(Cl)c3F)c2c1
4. CNC(=O)c1cnc2ccc(S(C)(=O)=O)cc2c1Nc1cccc(OC)c1
In a descending ranking, list each entry from above by its IC50, from the largest value down to the smallest. Respond with an ordered listing of the labels, as requested.
4, 2, 1, 3
(4: 3160 nM, 2: 251 nM, 1: 100 nM, 3: 6.31 nM)

---

Experiment: Solubility of the compound
Format: physicochemical
Result Type: solubility (µg/mL)

Here's what some known entries look like.
CS(=O)(=O)c1ccc2ncc(C(N)=O)c(Nc3cccc(Cl)c3)c2c1 :: 2
Cc1cc(S(C)(=O)=O)cc2c(Nc3cccc(C#N)c3)c(C(N)=O)cnc12 :: 18
COc1cc(Nc2c(C(N)=O)cnc3c(C)cc(S(C)(=O)=O)cc23)ccc1F :: 5
COc1cc(Nc2c(C(N)=O)cnc3ccc(S(C)(=O)=O)cc23)ccc1F :: 4

A. COc1cccc(Nc2c(C(N)=O)cnc3ccc(S(C)(=O)=O)cc23)c1
B. CS(=O)(=O)c1ccc2ncc(C(N)=O)c(Nc3cccc(Cl)c3F)c2c1
C. CS(=O)(=O)c1ccc2ncc(C(N)=O)c(Nc3cccc4c3CCO4)c2c1
D. CS(=O)(=O)c1ccc2ncc(C(N)=O)c(Nc3cccc(O)c3)c2c1
Rank descending by solubility. List the labels according to the requested ordering.
C, D, B, A
(C: 43 µg/mL, D: 30 µg/mL, B: 12 µg/mL, A: 5 µg/mL)
